# TARGET UNDER TEST: T1, ActRIIB-Fc homodimer (UniProt Q13705 19-137)
# T1 construct: extracellular domain; also called ActRIIB homodimer
# T1 sequence (looked up): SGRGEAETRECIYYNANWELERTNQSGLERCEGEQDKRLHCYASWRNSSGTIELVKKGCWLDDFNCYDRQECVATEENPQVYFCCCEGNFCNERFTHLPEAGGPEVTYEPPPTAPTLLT
# ASSAY NOTES: Biacore SPR
READOUT KIND: koff (s⁻¹)

1. GDF11 (ligand, UniProt O95390 299-407, looked up, also called BMP11) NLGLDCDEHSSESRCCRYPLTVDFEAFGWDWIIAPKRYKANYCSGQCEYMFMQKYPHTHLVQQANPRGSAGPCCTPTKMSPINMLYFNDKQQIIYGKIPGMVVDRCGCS
2. GDF3 (ligand, UniProt Q9NR23 251-364, looked up) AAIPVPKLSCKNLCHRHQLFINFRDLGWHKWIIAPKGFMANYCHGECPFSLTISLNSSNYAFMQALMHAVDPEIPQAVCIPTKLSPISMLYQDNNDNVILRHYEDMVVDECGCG
INPUT: Please indicate which has the smaller reported koff: 1 , or 2 . // return label of chosen record
OUTPUT: 1

P. activin A (ligand, UniProt P08476 311-426, looked up) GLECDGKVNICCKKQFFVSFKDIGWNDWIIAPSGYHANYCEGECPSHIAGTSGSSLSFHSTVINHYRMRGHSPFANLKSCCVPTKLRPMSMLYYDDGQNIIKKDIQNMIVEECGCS
Q. BMP9 (ligand, UniProt Q9UK05 320-429, looked up, also called GDF2) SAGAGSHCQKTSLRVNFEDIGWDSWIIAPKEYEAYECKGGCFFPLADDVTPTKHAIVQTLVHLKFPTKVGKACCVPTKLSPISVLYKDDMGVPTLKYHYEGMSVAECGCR
INPUT: Could you kindly indicate whether P or Q has the higher koff value? // return label of chosen record
OUTPUT: Q
(Q: 0.0012 s⁻¹, P: 0.00014 s⁻¹)

The measurements presented in this section are drawn from patent US20190225669A1.
